Recorded growth inhibition values for a group of compounds are listed next.
Assay name: NCI Yeast Anticancer Drug Screen. Data for the mec2-1 strain (AID 157)
Test settings: S. cerevisiae mec2-1 strain, at 50.0 µM (retest, dose inferred, filed as 5.0), hits give high values
Compounds without any hit were thinned out: in the full panel of roughly 79,000, 15% have a hit. Active and inactive are the calls of the source. Rule as the data show it: active = growth inhibition above about 70%; inactive = the rest.
Observed property: growth inhibition

{"Compound": "C=C1C(=O)[C@]23C[C@H]1CC[C@H]2[C@@]12CO[C@@H](O)[C@@H]1C(C)(C)[C@@H](O)C[C@@H]2OC3=O", "Meas value": "79% (active)"}
{"Compound": "C=C(C)[P+](C)(c1ccccc1)c1ccccc1", "Meas value": "6% (inactive)"}
{"Compound": "O=C1OC(c2ccccc2)(c2ccc(-c3ccccc3O)cc2)c2ccccc21 (centres undefined)", "Meas value": "92% (active)"}
{"Compound": "CC(=O)Nc1n[n+]([O-])c2cc(C)ccc2[n+]1[O-]", "Meas value": "99% (active)"}
{"Compound": "CCCCCCCCCCCCCCCCNC(C)c1ccccc1 (centres undefined)", "Meas value": "9% (inactive)"}
{"Compound": "O=C(c1c(F)c(F)c(F)c(F)c1F)n1c(=S)n(C(=O)c2c(F)c(F)c(F)c(F)c2F)c2ccccc21", "Meas value": "90% (active)"}
{"Compound": "O=[N+]([O-])c1ccc(NNS(=O)(=O)c2ccccc2)c([N+](=O)[O-])c1", "Meas value": "-4% (inactive)"}
{"Compound": "CCC(C)SSc1ccccc1C(=O)Nc1ccc(Cl)cc1 (centres undefined)", "Meas value": "93% (active)"}
{"Compound": "CC(=O)Oc1cc2c(=O)oc3c(OC(C)=O)c(OC(C)=O)c(OC(C)=O)c4c(=O)oc(c1OC(C)=O)c2c34", "Meas value": "48% (inactive)"}
{"Compound": "ClCc1nc2ccccc2c2ccccc12", "Meas value": "26% (inactive)"}
{"Compound": "COc1ccccc1C1C2=C(COC2=O)OC(C)(C)Oc2cc3c(cc21)OCO3 (centres undefined)", "Meas value": "96% (active)"}
{"Compound": "CC12OC1C(=O)c1ccccc1C2=O (centres undefined)", "Meas value": "93% (active)"}
{"Compound": "CC(C)(C)OC(=O)N(CCCCNC(=O)OCc1ccccc1)CCCNC(=O)OCc1ccccc1", "Meas value": "-4% (inactive)"}
{"Compound": "Cc1cc(SCc2ccccc2)cc(C)[o+]1", "Meas value": "99% (active)"}

----------
Recorded growth inhibition values for a group of compounds are listed next.
Assay name: NCI Yeast Anticancer Drug Screen. Data for the sgs1 mgt1 strain (AID 161);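 also: 0% = growth of cultures given vehicle only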
Test settings: S. cerevisiae sgs1 mgt1 strain, at 50.0 µM (retest, dose inferred, filed as 5.0), hits give high values
About 79,000 compounds went through this panel and 15% of them were active in at least one assay; those are over-represented in the sample as a whole. Active and inactive are the calls of the source. No stated cut-off is given here; in the data, active means growth inhibition above about 70%; inactive means the rest.

{"Compound": "C=C1C(=O)[C@]23C[C@H]1CC[C@H]2[C@@]12CO[C@@H](O)[C@@H]1C(C)(C)[C@@H](O)C[C@@H]2OC3=O", "growth inhibition": "27% (inactive)"}
{"Compound": "COc1ccc2c(c1)OC(OC)(c1ccccc1)C(O)(OC)C2=O (stereo not given)", "growth inhibition": "35% (inactive)"}
{"Compound": "COc1ccc(N=Nc2ccc3oc(=O)c(C(=O)Nc4ccc(Cl)cc4)cc3c2)cc1", "growth inhibition": "98% (active)"}
{"Compound": "CC(=O)Nc1ccc(-c2csc(Nc3ccnc4cc(Cl)ccc34)n2)cc1", "growth inhibition": "69% (inactive)"}
{"Compound": "O=C(NCCNCCNCCNC(=O)c1cc(-c2ccccc2)nc2ccccc12)c1cc(-c2ccccc2)nc2ccccc12", "growth inhibition": "41% (inactive)"}
{"Compound": "CN(C)C1=NC2=S(SC(Nc3ccccc3)=N2)S1 (stereo not given)", "growth inhibition": "28% (inactive)"}
{"Compound": "O=[N+]([O-])c1ccc(O)c(/C=N\\NC(=S)Nc2ccc3cn[nH]c3c2)c1", "growth inhibition": "37% (inactive)"}
{"Compound": "Cc1c2cnccc2c(C)c2c1sc1ccccc12", "growth inhibition": "96% (active)"}
{"Compound": "COc1ccc(/C=C/C(=N/NC(=O)c2ccccc2)C(C)CN(C)C)cc1 (stereo not given)", "growth inhibition": "2% (inactive)"}
{"Compound": "O=C1Nc2ccc([N+](=O)[O-])c3c([N+](=O)[O-])ccc1c23", "growth inhibition": "88% (active)"}
{"Compound": "O=C(c1ccc(O)cc1)c1ccccc1O", "growth inhibition": "14% (inactive)"}
{"Compound": "O=C1C(=O)c2ccccc2C=C1Br", "growth inhibition": "99% (active)"}
{"Compound": "O=C1CCCC/C1=C\\c1ccc(Br)cc1", "growth inhibition": "99% (active)"}
{"Compound": "CC1(C)CC[C@]2(C(=O)O)[C@H](O)C[C@]3(C)C(=CC[C@@H]4[C@@]5(C)CC[C@H](OC6OCC(O)C(O)C6OC6OCC(O)C(O)C6OC6OCC(O)C(O)C6O)C(C)(C)[C@@H]5CC[C@]43C)[C@@H]2C1 (stereo not given in full)", "growth inhibition": "33% (inactive)"}
{"Compound": "C=CCOc1c(CCC)cc(CN)cc1CCC", "growth inhibition": "23% (inactive)"}
{"Compound": "COc1ccccc1NC(=O)C1=C(C)NC(C)=C(C(=O)Nc2ccccc2OC)C1c1ccc(C2C(C(=O)Nc3ccccc3OC)=C(C)NC(C)=C2C(=O)Nc2ccccc2OC)cc1", "growth inhibition": "92% (active)"}
{"Compound": "O=[N+]([O-])c1cc(CNCCO)c(O)c2ncccc12", "growth inhibition": "99% (active)"}
{"Compound": "OCC(CCc1c[nH]c2ccccc12)c1c[nH]c2ccccc12 (stereo not given)", "growth inhibition": "100% (active)"}
{"Compound": "CC(C)c1cc(C(=O)[O-])c(O)c(C(C)C)c1.CC(C)c1cc(C(=O)[O-])c(O)c(C(C)C)c1.CC(C)c1cc(C(=O)[O-])c(O)c(C(C)C)c1.CC(C)c1cc(C(=O)[O-])c(O)c(C(C)C)c1.CC(C)c1cc(C(=O)[O-])c(O)c(C(C)C)c1.CC(C)c1cc(C(=O)[O-])c(O)c(C(C)C)c1.[Cu+2].[Mn+2].[Mn+2]", "growth inhibition": "70% (active)"}
{"Compound": "CN=C(N)N/N=C(\\C)c1ccc2c(c1)Cc1cc(Cl)ccc1-2", "growth inhibition": "97% (active)"}
{"Compound": "O=c1cc(-c2cccc(OCc3ccccc3)c2)[nH]c2cc3c(cc12)OCO3", "growth inhibition": "16% (inactive)"}
{"Compound": "COC(=O)C1=C(C)NC(C)=C([N+](=O)[O-])C1c1cccc(N=O)c1 (stereo not given)", "growth inhibition": "86% (active)"}
{"Compound": "C/C(=N\\Nc1ccccn1)c1ccccn1", "growth inhibition": "98% (active)"}
{"Compound": "CSC(=N)N1N=C2/C(=C/c3ccccc3)CCC[C@H]2[C@H]1c1ccccc1", "growth inhibition": "13% (inactive)"}
{"Compound": "Cc1ccc(SC2C(=O)C3(C)CCC2C3(C)C)cc1 (stereo not given)", "growth inhibition": "44% (inactive)"}
{"Compound": "NC(=O)NNC(=O)NNC(N)=O", "growth inhibition": "4% (inactive)"}
{"Compound": "CC(C)C1(Cl)CCC2C3(C)CCCC(C)(C(=O)O)C3CC(Cl)C2(Cl)C1Cl (stereo not given)", "growth inhibition": "61% (inactive)"}
{"Compound": "CN(C)CCCCN1c2ccccc2Sc2ccc(C(=O)c3ccccc3)cc21", "growth inhibition": "79% (active)"}
{"Compound": "CC(=O)OC1SC(C)(C)n2c1nc1ccccc1c2=O (stereo not given)", "growth inhibition": "51% (inactive)"}
{"Compound": "CCOC(=O)c1ccc2c3c([nH]c2c1C)-c1ccccc1CC3", "growth inhibition": "95% (active)"}
{"Compound": "CCOP(=O)(OCC)C(=C1C=C(C(C)(C)C)C(=O)C(C(C)(C)C)=C1)P(=O)(OCC)OCC", "growth inhibition": "89% (active)"}
{"Compound": "Oc1ccc(C2CCCCC2)c(O)c1", "growth inhibition": "37% (inactive)"}
{"Compound": "O=C(C[n+]1ccccc1Cl)c1ccc(F)cc1", "growth inhibition": "99% (active)"}
{"Compound": "CCN(CC)CCNc1ccc(C)c2sc3c(OC)cccc3c(=O)c12", "growth inhibition": "22% (inactive)"}
{"Compound": "COC(=O)C1=C(C)NC(c2ccc(OC)cc2OC)C(C(=O)OC)=C1C (stereo not given)", "growth inhibition": "14% (inactive)"}
{"Compound": "Cc1cc(Cl)cc2c1OCN(C)C2", "growth inhibition": "97% (active)"}
{"Compound": "CC(C)(C)C(OC(=O)Nc1ccccc1)C(C)(C)C", "growth inhibition": "8% (inactive)"}
{"Compound": "CCn1c2ccccc2c2ccc(N=Nc3ccc(N(C)C)cc3)cc21", "growth inhibition": "92% (active)"}
{"Compound": "CO[C@H]1CC[C@@]2(C)C(=CC[C@H]3[C@@H]4C[C@H](OC(C)=O)C[C@@]4(C)CC[C@@H]32)C1", "growth inhibition": "24% (inactive)"}
{"Compound": "Cc1ccc(S(=O)(=O)c2cc(O)c(O)c3ccc(Br)cc23)cc1", "growth inhibition": "98% (active)"}
